Source: patent EP2002836B1

TARGET: PKAα (Homo sapiens)
Construct: polyHis; made in house; host or cells: E. coli
PROTOCOL DESCRIPTION: FABS-NMR screening (3-FABS, 19F-labelled AKTide-like substrate) on PKA
Type: biochemical
RUN CONDITIONS: 25 nM protein, 30 µM substrate, 150 µM ATP
For each record, write down the corresponding IC50.
State the value, then name its unit.

# count of solved cases: 3
INSERT INTO assay_data (chem_smiles, value_reported) VALUES
  ('CC(=O)N1CC(C(=O)N[C@H](CN)Cc2ccccc2)=Cc2c[nH]c3nccc1c23', '0.075 µM'),
  ('NC[C@H](Cc1ccccc1)NC(=O)C1=Cc2c[nH]c3nccc(c23)NC1', '0.01 µM'),
  ('O=C(N[C@H](CN1CCCC1)c1ccccc1)C1=Cc2c[nH]c3nccc(c23)CC1', '0.062 µM');

Now look at this entry.
Would you kindly share the measured IC50 for NC[C@H](Cc1ccccc1)NC(=O)C1=Cc2c[nH]c3nccc(c23)CC1 ?
0.02 µM
